Target: full-length human PD-1 expressed on cells (human, UniProt Q15116 25-288)
Sequence (Q15116 25-288 limits assumed): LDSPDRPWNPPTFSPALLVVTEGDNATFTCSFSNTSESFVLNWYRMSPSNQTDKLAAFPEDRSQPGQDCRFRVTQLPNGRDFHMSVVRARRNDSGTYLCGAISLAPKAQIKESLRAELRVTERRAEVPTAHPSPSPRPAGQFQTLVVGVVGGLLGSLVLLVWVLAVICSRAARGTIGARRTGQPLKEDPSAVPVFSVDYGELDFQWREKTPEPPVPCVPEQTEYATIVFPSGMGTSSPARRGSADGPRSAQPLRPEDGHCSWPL
Assay: cell-based or functional assay
quantity.kind: hPD-1 blockade assay IC50 (mg/L)
# number only, unit mg/L dropped from output

>  <binder>
MAB-19-0202 (antibody, V domains shown, Chimeric rabbit/human antibody: rabbit variable regions cloned N-terminal of human IgG1 / kappa constant parts with L234A and L235A (LALA)) VH: QSVEESGGRLVTPGTPLTLTCTVSGFSLYSYNMGWVRQAPGKGLEYIGIISGGTIGHYASWAKGRFTISKTSSTTVDLKMTSLTTEDTATYFCARAFYDDYDYNVWGPGTLVTVSS VL: AAVLTQTPSPVSAAVGGTVTISCQSSQSVYGNNQLSWYQQKPGQPPKLLIYQASKLETGVPSRFKGSGSGTQFTLTISDLESDDAATYYCAGGYSSSSDTTFGGGTEVVVK

>  <quantity.kind>
hPD-1 blockade assay IC50

>  <reported.value>
0.324

$$$$
>  <binder>
MAB-19-0233 (antibody, human IgG1, V domains shown, Chimeric rabbit/human antibody, human IgG1 constant parts with L234A and L235A (LALA)) VH: QSLEESGGDLVKPGASLTLTCKASGIDFSSVYYMCWVRQAPGKGLEWIACIYVGSSGVSYYATWAKGRFTISKTSSTTVTLQMTSLTAADTATYFCARAGYVGAVYVTLTRLDLWGQGTLVTVSS VL: AAVLTQTPSPVSAAVGGTVTISCQSSQSIYTNNDLAWYQQKPGQPPKLLIYDASKLASGVPSRFSGSGSGTQFTLTISGVQSDDAATYYCLGGYDDDADNAFGGGTEVVVK

>  <quantity.kind>
hPD-1 blockade assay IC50

>  <reported.value>
0.657

$$$$

Continue with the next binder.
Provide hPD-1 blockade assay IC50 value for the following binder: MAB-19-0223 (antibody, human IgG1, V domains shown, Chimeric rabbit/human antibody, human IgG1 constant parts with L234A and L235A (LALA); also called chimeric anti-PD-1 MAB-19-0223) VH: QEHLVESGGGLVQPEGSLTLTCKASGIDFSDTYWICWVRQPPGKGLEWIGCIGIGGSGSTYYAGWAKGRFTISKTSSTTVTLQMTTLTDADTATYFCATEIPYFNVWGPGTLVTVSS VL: AQVLTQTPSSVSAAVGGTVTINCQSSQSVYNKNWLAWYQQKPGQPPKLLIYDASKLTSGVPSRFKGSGSGTQFTLTISGVQSDDAATYYCQGTYDVNGWLVAFGGGAEVVVK
0.913
